targetUnderTest: UniProt P56524
Sequence (P56524 655-1084 limits assumed): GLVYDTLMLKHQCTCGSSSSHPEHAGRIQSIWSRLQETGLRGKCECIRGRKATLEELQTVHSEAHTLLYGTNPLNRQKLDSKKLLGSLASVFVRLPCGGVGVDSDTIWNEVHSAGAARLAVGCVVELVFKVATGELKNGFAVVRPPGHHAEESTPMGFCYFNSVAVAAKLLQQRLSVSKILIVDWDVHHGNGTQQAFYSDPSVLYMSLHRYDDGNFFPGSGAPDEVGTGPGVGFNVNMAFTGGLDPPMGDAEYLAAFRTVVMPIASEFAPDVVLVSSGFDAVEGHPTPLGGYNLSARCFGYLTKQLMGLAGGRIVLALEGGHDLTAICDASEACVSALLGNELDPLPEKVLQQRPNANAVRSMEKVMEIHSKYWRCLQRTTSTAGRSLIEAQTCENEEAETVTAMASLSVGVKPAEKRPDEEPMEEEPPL
method: HDAC enzyme activity assay, HDAC4
Format: biochemical
experimentalEndpoint: IC50

chemicalsmiles=Cc1ccc(C=C2SC(=O)N(CC(=O)Nc3ccc(Cl)cc3C(F)(F)F)C2=O)cc1 targetundertest="UniProt P56524" experimentalendpoint=IC50 resultvalue="> 50 µM"
chemicalsmiles=O=C(CN1C(=O)SC(=Cc2ccc(F)cc2)C1=O)Nc1ccc(Cl)cc1C(F)(F)F targetundertest="UniProt P56524" experimentalendpoint=IC50 resultvalue="> 50 µM"
chemicalsmiles=O=C(CN1C(=O)SC(=Cc2ccccc2)C1=O)Nc1ccc(Cl)cc1C(F)(F)F targetundertest="UniProt P56524" experimentalendpoint=IC50 resultvalue="> 50 µM"

====

Here the recorded pIC50 is given for each entry.
Tested on: K562 cells
method: MTT cytotoxicity assay in K562 cells
Format: cell-based
conditionNotes: Homo sapiens, K562, 48 h, read-out: K562- IC50
pIC50: −log10 of the molar value.
experimentalEndpoint: pIC50

molecule=O=C(CN1C(=O)SC(=Cc2ccc(F)cc2)C1=O)Nc1cccc(C(F)(F)F)c1 experimentalendpoint=pIC50 censoringqualifier== resultvalue=4.63
molecule=O=C(CN1C(=O)SC(=Cc2ccccc2)C1=O)Nc1ccc(F)cc1F experimentalendpoint=pIC50 censoringqualifier=< resultvalue=4.30
molecule=O=C(CN1C(=O)SC(=Cc2ccccc2)C1=O)Nc1ccc(Cl)cc1C(F)(F)F experimentalendpoint=pIC50 censoringqualifier== resultvalue=4.38
molecule=Cc1ccc(C=C2SC(=O)N(CC(=O)Nc3ccc(Cl)cc3C(F)(F)F)C2=O)cc1 experimentalendpoint=pIC50 censoringqualifier== resultvalue=4.46
molecule=Cc1ccc(C=C2SC(=O)N(CC(=O)Nc3ccc(F)cc3F)C2=O)cc1C experimentalendpoint=pIC50 censoringqualifier=< resultvalue=4.30
molecule=O=C(CN1C(=O)SC(=Cc2ccccc2)C1=O)Nc1nc2c(Cl)cccc2s1 experimentalendpoint=pIC50 censoringqualifier== resultvalue=4.10
molecule="CCc1ccc(CCOc2ccc(CC3SC(=O)NC3=O)cc2)nc1 (stereo not drawn) [Pioglitazone, reference compound]" experimentalendpoint=pIC50 censoringqualifier== resultvalue=4.50
molecule=O=C(CN1C(=O)SC(=Cc2ccc(F)cc2)C1=O)Nc1ccc(Cl)cc1C(F)(F)F experimentalendpoint=pIC50 censoringqualifier== resultvalue=4.36
molecule="CC(=O)O[C@H]1C(=O)[C@@]2(C)[C@H]([C@H](OC(=O)c3ccccc3)[C@]3(O)C[C@H](OC(=O)[C@H](O)[C@@H](NC(=O)c4ccccc4)c4ccccc4)C(C)=C1C3(C)C)[C@]1(OC(C)=O)CO[C@@H]1C[C@@H]2O [Paclitaxel, reference compound]" experimentalendpoint=pIC50 censoringqualifier== resultvalue=6.54

====

targetUnderTest: UniProt:Q13547
Sequence (Q13547 whole entry, species assumed): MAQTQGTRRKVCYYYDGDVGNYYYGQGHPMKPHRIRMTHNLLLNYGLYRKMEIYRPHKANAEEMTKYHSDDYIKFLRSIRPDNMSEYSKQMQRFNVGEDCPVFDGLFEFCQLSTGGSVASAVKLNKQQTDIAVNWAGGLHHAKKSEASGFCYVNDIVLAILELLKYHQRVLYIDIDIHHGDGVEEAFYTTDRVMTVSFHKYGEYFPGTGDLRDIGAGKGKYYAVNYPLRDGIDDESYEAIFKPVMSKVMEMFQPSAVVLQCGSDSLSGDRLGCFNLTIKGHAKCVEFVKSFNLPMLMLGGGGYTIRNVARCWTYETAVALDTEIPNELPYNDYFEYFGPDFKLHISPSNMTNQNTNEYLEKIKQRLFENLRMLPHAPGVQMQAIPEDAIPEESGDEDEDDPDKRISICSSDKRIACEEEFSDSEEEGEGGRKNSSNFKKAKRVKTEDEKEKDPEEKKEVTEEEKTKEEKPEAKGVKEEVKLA
method: HDAC enzyme activity assay, HDAC1
Type: biochemical
experimentalEndpoint: IC50 (µM)

chemicalsmiles=O=C(CN1C(=O)SC(=Cc2ccccc2)C1=O)Nc1ccc(Cl)cc1C(F)(F)F targetundertest=UniProt:Q13547 experimentalendpoint=IC50 censoringqualifier=> resultvalue=50
chemicalsmiles=Cc1ccc(C=C2SC(=O)N(CC(=O)Nc3ccc(Cl)cc3C(F)(F)F)C2=O)cc1 targetundertest=UniProt:Q13547 experimentalendpoint=IC50 censoringqualifier== resultvalue=31

====

targetUnderTest: HDAC8 (Homo sapiens, UniProt Q9BY41)
method: HDAC enzyme activity assay, HDAC8
Type: biochemical
conditionNotes: primary screening at 50 μM
experimentalEndpoint: HDAC-8 relative enzyme activity

molecule="Cc1ccc(C=C2SC(=O)N(CC(=O)Nc3ccc(Cl)cc3C(F)(F)F)C2=O)cc1C [Compound G3]" resultvalue="< 50%"
molecule="O=C(CN1C(=O)SC(=Cc2ccccc2)C1=O)Nc1ccc(Cl)cc1C(F)(F)F [Compound G13]" resultvalue="< 50%"
molecule="O=C(CN1C(=O)SC(=Cc2ccc(Cl)cc2)C1=O)Nc1ccc(F)cc1F [Compound G6]" resultvalue="< 50%"
molecule="Cc1ccc(C=C2SC(=O)N(CC(=O)Nc3ccc(Cl)cc3C(F)(F)F)C2=O)cc1 [Compound G11]" resultvalue="< 50%"
molecule="O=C(CN1C(=O)SC(=Cc2ccc(Br)cc2)C1=O)Nc1ccc(Cl)cc1C(F)(F)F [Compound G1]" resultvalue="< 50%"
molecule="O=C(CN1C(=O)SC(=Cc2ccc(F)cc2)C1=O)Nc1ccc(Cl)cc1C(F)(F)F [Compound G9]" resultvalue="< 50%"

====

Here the recorded IC50 is given for each entry.
targetUnderTest: HDAC8 (Homo sapiens, UniProt Q9BY41)
method: HDAC enzyme activity assay, HDAC8
Type: biochemical
conditionNotes: read-out: HDAC8 IC50; Means ±SD, n=3
experimentalEndpoint: IC50 (µM)

chemicalsmiles=Cc1ccc(C=C2SC(=O)N(CC(=O)Nc3ccc(Cl)cc3C(F)(F)F)C2=O)cc1C experimentalendpoint=IC50 resultvalue=16
chemicalsmiles=O=C(CN1C(=O)SC(=Cc2ccc(Cl)cc2)C1=O)Nc1ccc(F)cc1F experimentalendpoint=IC50 resultvalue=49
chemicalsmiles=O=C(CN1C(=O)SC(=Cc2ccc(Br)cc2)C1=O)Nc1ccc(Cl)cc1C(F)(F)F experimentalendpoint=IC50 resultvalue=20

====

Here the recorded IC50 is given for each entry.
System: K562 cells
method: MTT cytotoxicity assay in K562 cells
Format: cell-based
conditionNotes: read-out: K562- IC50; MTT, 48 h, Mean±SD, n=3
experimentalEndpoint: IC50 (µM)

chemicalsmiles=O=C(CN1C(=O)SC(=Cc2ccc(F)cc2F)C1=O)Nc1cccc(C(F)(F)F)c1 targetundertest="K562 cells" experimentalendpoint=IC50 censoringqualifier=> resultvalue=50
chemicalsmiles=O=C(CN1C(=O)SC(=Cc2ccc(Br)cc2)C1=O)Nc1ccc(Cl)cc1C(F)(F)F targetundertest="K562 cells" experimentalendpoint=IC50 censoringqualifier== resultvalue=24
chemicalsmiles=O=C(CN1C(=O)SC(=Cc2ccc(F)cc2F)C1=O)Nc1ccc(Cl)cc1C(F)(F)F targetundertest="K562 cells" experimentalendpoint=IC50 censoringqualifier== resultvalue=36.8
chemicalsmiles=O=C(CN1C(=O)SC(=Cc2ccc(Cl)cc2)C1=O)Nc1ccc(Cl)cc1C(F)(F)F targetundertest="K562 cells" experimentalendpoint=IC50 censoringqualifier== resultvalue=34.9
chemicalsmiles=O=C(CN1C(=O)SC(=Cc2ccc(F)cc2F)C1=O)Nc1ccc(F)cc1F targetundertest="K562 cells" experimentalendpoint=IC50 censoringqualifier== resultvalue=34.5
chemicalsmiles=O=C(CN1C(=O)SC(=Cc2ccc(Br)cc2)C1=O)Nc1ccc(F)cc1F targetundertest="K562 cells" experimentalendpoint=IC50 censoringqualifier=> resultvalue=50
chemicalsmiles=Cc1ccc(C=C2SC(=O)N(CC(=O)Nc3ccc(F)cc3F)C2=O)cc1 targetundertest="K562 cells" experimentalendpoint=IC50 censoringqualifier=> resultvalue=50
chemicalsmiles=O=C(CN1C(=O)SC(=Cc2ccc(F)cc2)C1=O)Nc1ccc(F)cc1F targetundertest="K562 cells" experimentalendpoint=IC50 censoringqualifier== resultvalue=45.4
chemicalsmiles=O=C(CN1C(=O)SC(=Cc2ccc(Cl)cc2)C1=O)Nc1ccc(F)cc1F targetundertest="K562 cells" experimentalendpoint=IC50 censoringqualifier== resultvalue=48.2
chemicalsmiles=Cc1ccc(C=C2SC(=O)N(CC(=O)Nc3ccc(Cl)cc3C(F)(F)F)C2=O)cc1C targetundertest="K562 cells" experimentalendpoint=IC50 censoringqualifier== resultvalue=26.4

====

targetUnderTest: HDAC8 (Homo sapiens, UniProt Q9BY41)
Sequence (Q9BY41 1-377): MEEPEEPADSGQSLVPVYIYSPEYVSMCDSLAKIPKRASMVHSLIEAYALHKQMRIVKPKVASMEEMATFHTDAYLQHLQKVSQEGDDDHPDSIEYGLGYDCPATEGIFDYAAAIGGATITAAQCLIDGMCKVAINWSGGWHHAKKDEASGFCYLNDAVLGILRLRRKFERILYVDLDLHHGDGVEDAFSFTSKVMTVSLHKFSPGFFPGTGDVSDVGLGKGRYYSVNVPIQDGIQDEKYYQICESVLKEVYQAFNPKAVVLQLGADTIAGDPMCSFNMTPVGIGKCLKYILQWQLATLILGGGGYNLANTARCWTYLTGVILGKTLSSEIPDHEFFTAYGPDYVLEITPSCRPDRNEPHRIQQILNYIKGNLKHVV
method: HDAC enzyme activity assay, HDAC8
Format: biochemical
pIC50: −log10 of the molar value.
experimentalEndpoint: pIC50

chemicalsmiles=O=C(CN1C(=O)SC(=Cc2ccccc2)C1=O)Nc1ccc(Cl)cc1C(F)(F)F experimentalendpoint=pIC50 resultvalue=4.96
chemicalsmiles=Cc1ccc(C=C2SC(=O)N(CC(=O)Nc3ccc(Cl)cc3C(F)(F)F)C2=O)cc1 experimentalendpoint=pIC50 resultvalue=4.74
chemicalsmiles=O=C(CN1C(=O)SC(=Cc2ccc(F)cc2)C1=O)Nc1ccc(Cl)cc1C(F)(F)F experimentalendpoint=pIC50 resultvalue=4.35

====

targetUnderTest: GLUT4 (Homo sapiens)
Sequence (P14672 1-509): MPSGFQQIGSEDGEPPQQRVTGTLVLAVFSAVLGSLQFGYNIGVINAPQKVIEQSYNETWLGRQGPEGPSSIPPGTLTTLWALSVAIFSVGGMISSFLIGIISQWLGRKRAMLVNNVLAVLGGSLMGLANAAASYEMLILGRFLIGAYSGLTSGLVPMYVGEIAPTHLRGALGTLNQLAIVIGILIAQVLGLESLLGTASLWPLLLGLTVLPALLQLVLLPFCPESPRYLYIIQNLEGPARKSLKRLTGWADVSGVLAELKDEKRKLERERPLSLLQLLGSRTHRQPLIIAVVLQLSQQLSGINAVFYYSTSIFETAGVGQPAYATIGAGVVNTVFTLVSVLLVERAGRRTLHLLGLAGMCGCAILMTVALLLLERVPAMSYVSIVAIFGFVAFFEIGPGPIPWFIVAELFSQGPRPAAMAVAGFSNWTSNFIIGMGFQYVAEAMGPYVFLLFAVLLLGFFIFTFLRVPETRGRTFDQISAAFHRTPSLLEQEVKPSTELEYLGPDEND
Assay type: cell-based
conditionNotes: read-out: GLUT4 IC50; hxt0 yeast cells expressing GLUT4, 5 mM C14-glucose, 10 minutes
experimentalEndpoint: IC50 (µM)

chemicalsmiles=O=C(CN1C(=O)SC(=Cc2ccc(Cl)cc2)C1=O)Nc1ccc(Cl)cc1C(F)(F)F displayunit=µM resultvalue=9.5
